# target_or_test_system: JMJD6^Δ363–403 (Homo sapiens, UniProt Q6NYC1)
# assay_details: CPMG-edited NMR titration, apparent binding constant of 2OG
# test_settings: CPMG-edited 1H NMR (700 MHz), 20 μM 2OG, 200 μM Zn(II), Tris-d11 pH 7.5, titrated with EDTA-treated JMJD6; mean ± S.D. (n = 3); read-out: 2OG KD^app
assay_metric: Kd

Exam item: Specify Kd for O=C(O)CCC(=O)C(=O)O [Peptide 2OG, 2-oxoglutarate] and stop.
Marked response: 3000 nM

----------
# target_or_test_system: JMJD6^Δ363–403 (Homo sapiens, UniProt Q6NYC1)
# assay_details: Standard MS-based hydroxylation assay (MALDI-TOF MS) of substrate peptides
# Assay type: biochemical
# Parameters: two more variants (aa 1–362, JMJD6^Δ363–403, and aa 1–343, JMJD6^Δ344–403); His6 (N); made in house; host or cells: Escherichia coli Rosetta2(DE3)
# test_settings: 10 μM JMJD6^Δ363–403, 100 μM peptide, 100 μM Fe(II), 400 μM ascorbate, 500 μM 2OG, 50 mM HEPES-KOH pH 8.0, 37 °C, 30 min, MALDI-TOF MS; mean ± S.D. (n = 3)
Reported Hydroxylation values follow for various sequences
A number alone suffices; assume %.

biosequence	target_or_test_system	Hydroxylation / %
RDRRRRSKPLTRGAK [U2AF65_55–70, fragment of U2AF65]	JMJD6^Δ363–403 (Homo sapiens, UniProt Q6NYC1)	61.0

Exam item: // fetch Hydroxylation given entry KRHSRSRSRS [Acinus S′95–604, fragment of Acinus S′]
Marked response: 12.5

Exam item: Identify the reported Hydroxylation for the following entry. RKRSRSKERRRS [RBM39_71–82, fragment of RBM39]
Marked response: 87.6

Exam item: In one line, give reported Hydroxylation of the entry RSPKRKLSRSPSPR [SRSF11_358–372, fragment of SRSF11] .
Marked response: 44.1

Exam item: Report measured Hydroxylation; entry is RSRSGTRSPKKPSR [SRSF11_347–360, fragment of SRSF11]
Marked response: 97.0
